measurement.target: human MCH receptor (Homo sapiens, UniProt Q99705)
Construct: expressed in transfected cells
Sequence (Q99705 whole entry): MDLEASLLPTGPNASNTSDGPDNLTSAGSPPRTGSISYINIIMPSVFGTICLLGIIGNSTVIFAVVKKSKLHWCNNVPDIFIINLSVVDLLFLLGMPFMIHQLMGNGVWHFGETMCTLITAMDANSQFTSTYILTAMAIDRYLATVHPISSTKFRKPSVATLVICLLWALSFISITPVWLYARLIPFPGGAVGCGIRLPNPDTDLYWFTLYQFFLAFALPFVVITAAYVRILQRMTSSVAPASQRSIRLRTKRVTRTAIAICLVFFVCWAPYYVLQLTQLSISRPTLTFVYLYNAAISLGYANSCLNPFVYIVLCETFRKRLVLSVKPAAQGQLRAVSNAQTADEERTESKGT
protocol.details: calcium mobilization assay (FLIPR), functional IC50 of MCH1R antagonists
Type: cell-based
attribute.measured: IC50 (µM)

O=C(N[C@H]1CCc2cc(CN3CCCCCC3)ccc2C1)c1ccc(NC(=O)C2CCCC2)cc1 :: 0.332

====

protocol.details: nephelometric (kinetic) solubility determination, phosphate buffer pH 7.4
Type: physicochemical
particulars: nephelometry, Table 8, reference compounds versus inventive examples
pH 7.4 (solubility) for assorted compounds
attribute.measured: pH 7.4 (solubility)

CC[C@H](O)COc1ccc(C(=O)N(C)[C@H]2CCc3cc(CN4CCCC4)ccc3C2)cc1 :: >0.275 mg/ml
CCCCOc1ccc(C(=O)N(C)[C@H]2CCc3cc(CN4CCCC4)ccc3C2)cc1 :: >0.267 mg/ml
CC[C@H](O)COc1ccc(C(=O)N[C@H]2CCc3cc(CN4CCCC4)ccc3C2)cc1 :: >0.268 mg/ml
CCCCOc1ccc(C(=O)N[C@H]2CCc3cc(CN4CCCC4)ccc3C2)cc1 :: 0.013 mg/ml

====

protocol.details: nephelometric (kinetic) solubility determination, phosphate buffer pH 7.4
Format: physicochemical
particulars: aqueous buffer, kinetic from dmso stock, nephelometric, Table 7
solubility kinetic for assorted compounds
attribute.measured: solubility kinetic

CCOCCNCc1ccc2c(c1)CC[C@H](N(C)C(=O)c1ccc(OCC3CC3)cc1)C2 :: > 275 µg/mL
C[C@H]1CC[C@H](c2ccc3c(c2)CC[C@H](N(C)C(=O)c2ccc(OCC4CC4)cc2)C3)N1 :: 10 µg/mL
CN(C(=O)c1ccc(OCC2CC2)cn1)[C@H]1CCc2cc(CN3CCCCCC3)ccc2C1 :: 168 µg/mL
CC1CCN(c2ccc(C(=O)N[C@H]3CCc4cc(CNCC5CCOCC5)ccc4C3)cc2)CC1 :: 15 µg/mL
CN(C(=O)c1ccc(OCC2CC2)cc1)[C@H]1CCc2cc(CN3CCC3)ccc2C1 :: > 259 µg/mL
CN(C(=O)c1ccc(C2CCCCC2)cc1)[C@H]1CCc2cc(CNCC3CCOCC3)ccc2C1 :: > 294 µg/mL
CN(C(=O)c1ccc(OCC2CC2)cc1)[C@H]1CCc2cc(CNCC3CCOCC3)ccc2C1 :: 153 µg/mL
CCCCOc1ccc(C(=O)N(C)[C@H]2CCc3cc(CNCC4CCOCC4)ccc3C2)nc1 :: > 290 µg/mL
CC(C)CCNCc1ccc2c(c1)CC[C@H](N(C)C(=O)c1ccc(OCC3CC3)cc1)C2 :: 137 µg/mL
CC[C@H](O)COc1ccc(C(=O)N[C@H]2CCc3cc(CN4CCCC4)ccc3C2)cc1 :: > 268 µg/mL
CN(C(=O)c1ccc(OCC2CC2)cc1)[C@H]1CCc2cc(CNCC3(C)CCOCC3)ccc2C1 :: > 295 µg/mL
CN(C(=O)c1ccc(OCC2CC2)cc1)[C@H]1CCc2cc(CN3CCC(O)CC3)ccc2C1 :: > 281 µg/mL
CN(C(=O)c1ccc(OCC2CC2)cc1)[C@H]1CCc2cc(CNCC3COCCO3)ccc2C1 (stereo partly shown) :: > 289 µg/mL
CN(Cc1ccc2c(c1)CC[C@H](N(C)C(=O)c1ccc(OCC3CC3)cc1)C2)CC1CCOCC1 :: > 295 µg/mL
CN(C(=O)c1ccc(OCC2CC2)cn1)[C@H]1CCc2cc(CNCC(C)(C)C)ccc2C1 :: > 275 µg/mL
O=C(N[C@H]1CCc2cc(CN3CCCCCC3)ccc2C1)c1ccc(OCC2CC2)cc1 :: 3 µg/mL

====

solubility kinetic for assorted compounds
protocol.details: nephelometric (kinetic) solubility determination, phosphate buffer pH 7.4
Assay type: physicochemical
particulars: aqueous buffer, kinetic from dmso stock, nephelometric, Table 7
attribute.measured: solubility kinetic

CN(C(=O)c1ccc(OCC2CC2)cn1)[C@H]1CCc2cc(CN3CCC(C)(C)CC3)ccc2C1 [Example 7-28] :: > 288 µg/mL
CCN1CCCCC1c1ccc2c(c1)CC[C@H](N(C)C(=O)c1ccc(OCC3CC3)cc1)C2 (some centres unmarked) [Example 5-07] :: > 280 µg/mL
CCCCOc1ccc(C(=O)N[C@H]2CCc3cc(CN4CC5CCC4C5)ccc3C2)cc1 (some centres unmarked) [Example 7-01] :: 82 µg/mL
CCCCOc1ccc(C(=O)N(C)[C@H]2CCc3cc(CN4CCCC4)ccc3C2)cc1 [Example 6-03] :: > 267 µg/mL
CN(C(=O)c1ccc(OCC2CC2)cc1)[C@H]1CCc2cc(CNCC3(C)CCCO3)ccc2C1 (some centres unmarked) [Example 1-11] :: > 288 µg/mL
CN(C(=O)c1ccc(OCC2CC2)cc1)[C@H]1CCc2cc(CNCCC3CCCO3)ccc2C1 (some centres unmarked) [Example 1-10] :: > 288 µg/mL
CC(C)(C)CNCc1ccc2c(c1)CC[C@H](NC(=O)c1ccc(OCC3CC3)cc1)C2 [Example 7-13] :: 7 µg/mL
O=C(N[C@H]1CCc2cc(CNCC3CCOCC3)ccc2C1)c1ccc(NC(=O)C(F)(F)F)cc1 [Example 2-04] :: 15 µg/mL

====

measurement.target: human MCH receptor (Homo sapiens, UniProt Q99705)
Construct: expressed in transfected cells
protocol.details: calcium mobilization assay (FLIPR), functional IC50 of MCH1R antagonists
Assay type: cell-based
particulars: recombinant HEK293 cell line expressing the human MCH receptor; calcium flux after addition of agonist (MCH); read-out: IC50
pIC50: −log10 of the molar value.
pIC50 for assorted molecules
attribute.measured: pIC50

CN(C(=O)c1ccc(OCC2CC2)cc1)[C@H]1CCc2cc(CNCC3(C)CCCO3)ccc2C1 (stereo partly shown) :: 6.76
CC1CCN(c2ccc(C(=O)N[C@H]3CCc4cc(CNCC5CCOCC5)ccc4C3)cc2)CC1 :: 6.61
CN(C(=O)c1ccc(OCC2CC2)cc1)[C@H]1CCc2cc(CNC[C@@H]3CCCO3)ccc2C1 :: 6.67
CN(C(=O)c1ccc(OCC2CC2)cn1)[C@H]1CCc2cc(CNCC(C)(C)C)ccc2C1 :: 6.43

====

measurement.target: human MCH receptor (Homo sapiens)
Construct: expressed in transfected cells
protocol.details: calcium mobilization assay (FLIPR), functional IC50 of MCH1R antagonists
Assay type: cell-based
particulars: recombinant HEK293 cell line expressing the human MCH receptor; calcium flux after addition of agonist (MCH); read-out: IC50
pIC50: −log10 of the molar value.
pIC50 for assorted molecules
attribute.measured: pIC50

CN1CCC[C@@H]1c1ccc2c(c1)CC[C@H](N(C)C(=O)c1ccc(OCC3CC3)cc1)C2 :: 6.86
C[C@H]1CC[C@H](c2ccc3c(c2)CC[C@H](N(C)C(=O)c2ccc(OCC4CC4)cc2)C3)N1 :: 6.64
CN(C(=O)c1ccc(OCC2CC2)cn1)[C@H]1CCc2cc(CN3CC4CCC3CC4)ccc2C1 :: 5.96
CN(C(=O)c1ccc(OCC2CC2)cc1)[C@H]1CCc2cc([C@H]3CCCN3)ccc2C1 :: 6.87

====

solubility kinetic for assorted molecules
protocol.details: nephelometric (kinetic) solubility determination, phosphate buffer pH 7.4
Assay type: physicochemical
particulars: aqueous buffer, kinetic from dmso stock, nephelometric, Table 7
attribute.measured: solubility kinetic

CN(C(=O)c1ccc(OCC2CC2)cc1)[C@H]1CCc2cc(CN3CCC(C(C)(C)O)CC3)ccc2C1 [Example 7-04] :: > 302 µg/mL
CN(C(=O)c1ccc(NC(=O)C(F)(F)F)cc1)[C@H]1CCc2cc(CNCC3CCOCC3)ccc2C1 [Example 2-02] :: > 309 µg/mL
O=C(N[C@H]1CCc2cc(CN3C[C@@H]4CC[C@H]3C4)ccc2C1)c1ccc(OCC2CC2)cc1 [Example 7-14] :: > 272 µg/mL
O=C(N[C@H]1CCc2cc(CN3CCCCCC3)ccc2C1)c1ccc(COC2CCC2)cc1 [Example 6-06] :: 28 µg/mL

====

measurement.target: human MCH receptor (Homo sapiens)
Construct: expressed in transfected cells
protocol.details: calcium mobilization assay (FLIPR), functional IC50 of MCH1R antagonists
Type: cell-based
particulars: recombinant HEK293 cell line expressing the human MCH receptor; calcium flux after addition of agonist (MCH); read-out: IC50
pIC50: −log10 of the molar value.
attribute.measured: pIC50

CCCCOc1ccc(C(=O)N[C@H]2CCc3cc(CN4CCCC4)ccc3C2)cc1 :: 6.90
CN(C(=O)c1ccc(OCC2CC2)cc1)[C@H]1CCc2cc(CN3CCCCCC3)ccc2C1 :: 6.47
CC(C)COc1ccc(C(=O)N(C)[C@H]2CCc3cc(CNCC4CCOCC4)ccc3C2)nc1 :: 6.44
CN(C(=O)c1ccc(OCC2CC2)cc1)[C@H]1CCc2cc([C@H]3CCCN3CC3CCOCC3)ccc2C1 :: 6.07
CC[C@H](O)COc1ccc(C(=O)N(C)[C@H]2CCc3cc(CN4CCCC4)ccc3C2)cc1 :: 5.92
CC(C)CCNCc1ccc2c(c1)CC[C@H](N(C)C(=O)c1ccc(OCC3CC3)cn1)C2 :: 6.84
O=C(N[C@H]1CCc2cc(CN3CCCCCC3)ccc2C1)c1ccc(OCC2CC2)cc1 :: 7.03
CCN(Cc1ccc2c(c1)CC[C@H](N(C)C(=O)c1ccc(OCC3CC3)cc1)C2)CC1CCOCC1 :: 6.29
